Recorded AC50 values for a group of compounds are listed next.
biological target: D(1A) dopamine receptor (Homo sapiens, UniProt P21728); also: assay procedure not described here
Sequence (P21728 whole entry): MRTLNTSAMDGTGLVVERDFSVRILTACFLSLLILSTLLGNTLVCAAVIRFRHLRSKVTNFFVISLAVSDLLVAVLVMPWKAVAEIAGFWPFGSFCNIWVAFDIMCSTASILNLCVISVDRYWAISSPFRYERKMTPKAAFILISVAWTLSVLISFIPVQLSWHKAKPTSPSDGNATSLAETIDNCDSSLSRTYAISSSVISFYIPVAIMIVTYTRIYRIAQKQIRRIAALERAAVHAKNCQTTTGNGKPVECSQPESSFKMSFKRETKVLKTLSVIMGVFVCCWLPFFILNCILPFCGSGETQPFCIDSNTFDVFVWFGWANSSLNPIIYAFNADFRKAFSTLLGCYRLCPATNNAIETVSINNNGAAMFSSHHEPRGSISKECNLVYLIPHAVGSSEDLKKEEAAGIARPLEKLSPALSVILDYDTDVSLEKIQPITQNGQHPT

Answered cases to consult:
O=C(O)CCCc1ccc(N(CCCl)CCCl)cc1
> 30 µM
CCCC(=O)O[C@H]1[C@H](C)O[C@@H](O[C@H]2[C@H](N(C)C)[C@@H](O)[C@H](O[C@H]3[C@@H](CC=O)C[C@@H](C)[C@@H](O)/C=C/C=C/C[C@@H](C)OC(=O)C[C@@H](O)[C@@H]3OC)O[C@@H]2C)C[C@@]1(C)OC(=O)CC
> 30 µM
CC(=O)OC(C)OC(=O)C(C)c1ccc(-c2ccccc2)c(F)c1 (stereo not given)
> 30 µM
Cc1onc(-c2c(Cl)cccc2Cl)c1C(=O)N[C@@H]1C(=O)N2[C@@H]1SC(C)(C)[C@@H]2C(=O)O
> 30 µM
CO[C@H]1/C=C/O[C@@]2(C)Oc3c(C)c(O)c4c(O)c(cc(O)c4c3C2=O)NC(=O)/C(C)=C\C=C\[C@H](C)[C@H](O)[C@@H](C)[C@@H](O)[C@@H](C)[C@H](OC(C)=O)[C@@H]1C
> 30 µM
C[C@]12CCC(=O)C=C1CC[C@@H]1[C@@H]2[C@@H](O)C[C@@]2(C)[C@H]1CC[C@]2(O)C(=O)COC(=O)CCC(=O)O [HYDROCORTISONE HEMISUCCINATE ANHYDROUS]
> 30 µM
COc1nccnc1NS(=O)(=O)c1ccc(N)cc1
> 30 µM
O=C(Nc1cccc2c(=O)cc(-c3nnn[nH]3)oc12)c1ccc(OCCCCc2ccccc2)cc1
10.1 µM

Request: GET /values?readout=AC50&system=D(1A) dopamine receptor (Homo sapiens, UniProt P21728)&item= "CNC[C@H](O)c1cccc(O)c1"
Result: 18.1 µM

Request: GET /values?readout=AC50&system=D(1A) dopamine receptor (Homo sapiens, UniProt P21728)&item= "CN1CCC[C@H]1c1cccnc1"
Result: > 30 µM

###

target: 5-hydroxytryptamine receptor 2A (Homo sapiens, UniProt P28223); format: functional, cell-based; also: assay procedure not described here
Sequence (P28223 whole entry): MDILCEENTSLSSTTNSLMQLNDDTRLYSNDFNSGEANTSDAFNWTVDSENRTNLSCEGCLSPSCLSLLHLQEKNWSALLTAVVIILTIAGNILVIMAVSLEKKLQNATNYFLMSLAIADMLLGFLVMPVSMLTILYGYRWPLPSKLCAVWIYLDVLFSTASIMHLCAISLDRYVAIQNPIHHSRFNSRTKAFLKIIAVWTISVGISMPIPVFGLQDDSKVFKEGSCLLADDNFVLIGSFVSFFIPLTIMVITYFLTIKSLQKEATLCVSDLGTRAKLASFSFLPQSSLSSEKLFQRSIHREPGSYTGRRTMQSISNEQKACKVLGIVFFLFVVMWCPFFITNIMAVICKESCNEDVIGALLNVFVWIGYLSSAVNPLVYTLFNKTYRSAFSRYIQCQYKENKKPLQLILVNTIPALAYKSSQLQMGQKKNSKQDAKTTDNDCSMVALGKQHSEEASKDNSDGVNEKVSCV
Recorded AC50 values for a group of compounds are listed next.

CCCN(CCc1cccs1)[C@H]1CCc2c(O)cccc2C1
0.46 µM
CC(=O)OCC(=O)[C@@]1(O)CC[C@H]2[C@@H]3CCC4=CC(=O)CC[C@]4(C)C3=CC[C@@]21C [ANECORTAVE ACETATE]
> 10 µM
Cc1ccc(=O)n(-c2ccccc2)c1
> 30 µM
O=C(O)c1cc(O)c2c3nc4ccccc4oc-3cc(=O)c2n1
> 30 µM
N#Cc1ccccc1-c1cc(-c2ccccn2)cn(-c2ccccc2)c1=O
> 30 µM
N[C@H](Cc1cc(I)c(Oc2cc(I)c(O)c(I)c2)c(I)c1)C(=O)O
> 30 µM

Now consider the entry below.
Request: Can you look up the measured AC50 of "CN(C)c1cc(CNCC(C)(C)C)c(O)c2c1C[C@H]1C[C@H]3[C@H](N(C)C)C(O)=C(C(N)=O)C(=O)[C@@]3(O)C(O)=C1C2=O" for me?
Result: > 30 µM

###

Entries with their measured AC50, system Vasopressin V1a receptor (Homo sapiens):

N[C@H](Cc1cc(I)c(Oc2cc(I)c(O)c(I)c2)c(I)c1)C(=O)O
> 30 µM

Request: Can you look up the measured AC50 of "C=C(C)[C@@H]1CCC(C)=C[C@H]1c1c(O)cc(CCCCC)cc1O" for me?
Result: > 30 µM

Request: Can you look up the measured AC50 of NS(=O)(=O)c1cc2c(cc1C(F)(F)F)NC(Cc1ccccc1)NS2(=O)=O (stereo not given) [BENDROFLUMETHIAZIDE] for me?
Result: > 10 µM

###

Entries with their measured AC50, system Sodium-dependent dopamine transporter (Homo sapiens, UniProt Q01959):

CC[C@@H](CO)NC(=O)[C@@H]1C=C2c3cccc4[nH]cc(c34)C[C@H]2N(C)C1 [METHYLERGONOVINE]
> 30 µM
NC(=O)c1ncn([C@@H]2O[C@H](CO)[C@@H](O)[C@H]2O)n1 [RIBAVIRIN]
> 10 µM
C[C@H]1C[C@H]2[C@@H]3CCC4=CC(=O)C=C[C@]4(C)[C@@]3(Cl)[C@@H](O)C[C@]2(C)[C@@]1(O)C(=O)CO [BECLOMETHASONE]
> 10 µM

Now consider the entry below.
Request: GET /values?readout=AC50&system=Sodium-dependent dopamine transporter (Homo sapiens, UniProt Q01959)&item= CC(C)(C)NC[C@H](O)COc1nsnc1N1CCOCC1 [TIMOLOL]; also: assay procedure not described here
Result: > 30 µM

###

Biological target: Alpha-2A adrenergic receptor (Homo sapiens); also: assay procedure not described here
Sequence (P08913 whole entry): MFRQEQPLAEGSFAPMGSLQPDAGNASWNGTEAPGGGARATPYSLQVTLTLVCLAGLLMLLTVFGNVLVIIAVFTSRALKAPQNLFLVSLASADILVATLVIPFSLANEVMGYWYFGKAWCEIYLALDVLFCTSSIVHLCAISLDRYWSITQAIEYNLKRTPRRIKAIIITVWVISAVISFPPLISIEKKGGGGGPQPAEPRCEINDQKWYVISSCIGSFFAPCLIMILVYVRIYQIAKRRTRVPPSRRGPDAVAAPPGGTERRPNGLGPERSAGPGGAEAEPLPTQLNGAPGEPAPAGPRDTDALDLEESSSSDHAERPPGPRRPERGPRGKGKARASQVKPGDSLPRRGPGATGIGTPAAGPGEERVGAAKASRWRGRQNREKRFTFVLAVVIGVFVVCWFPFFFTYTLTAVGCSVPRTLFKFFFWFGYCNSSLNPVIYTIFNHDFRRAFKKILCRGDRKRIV
Type: functional, cell-based
assayEndpoint: AC50

Answered cases to consult:
CCOC(=O)Nc1ccc2c(c1)N(C(=O)CCN1CCOCC1)c1ccccc1S2 [MORICIZINE]
> 30 µM
CC1(C)O[C@@H]2C[C@H]3[C@@H]4C[C@H](F)C5=CC(=O)C=C[C@]5(C)[C@H]4[C@@H](O)C[C@]3(C)[C@]2(C(=O)CO)O1 [FLUNISOLIDE]
> 30 µM
O=c1oc2ccccc2c(O)c1Cc1c(O)c2ccccc2oc1=O [DICUMAROL]
> 10 µM
CC(=O)OCC[N+](C)(C)C [ACETYLCHOLINE]
> 10 µM
NC(=O)CCC/N=C(\c1ccc(Cl)cc1)c1cc(F)ccc1O [PROGABIDE]
> 10 µM
O=C(O)CSCC(=O)NC1CCSC1=O (configuration not stated) [ERDOSTEINE]
> 30 µM

Request: GET /values?readout=AC50&system=Alpha-2A adrenergic receptor (Homo sapiens)&item= CCn1cc(C(=O)O)c(=O)c2cc(F)c(N3CCNCC3)nc21 [ENOXACIN]; also: assay procedure not described here
Result: > 10 µM

Request: GET /values?readout=AC50&system=Alpha-2A adrenergic receptor (Homo sapiens)&item= COCCOC(=O)C1=C(C)NC(C)=C(C(=O)OC/C=C/c2ccccc2)C1c1cccc([N+](=O)[O-])c1 (configuration not stated) [CILNIDIPINE]; also: assay procedure not described here
Result: > 30 µM

Request: GET /values?readout=AC50&system=Alpha-2A adrenergic receptor (Homo sapiens)&item= CCC(C)(Oc1ccc(C2(c3ccc(OC(C)(CC)C(=O)O)cc3)CCCCC2)cc1)C(=O)O (configuration not stated) [CLINOFIBRATE]; also: assay procedure not described here
Result: > 30 µM

Request: GET /values?readout=AC50&system=Alpha-2A adrenergic receptor (Homo sapiens)&item= CC(=O)Oc1ccccc1C(=O)Nc1ncc([N+](=O)[O-])s1 [NITAZOXANIDE]; also: assay procedure not described here
Result: > 30 µM

Request: GET /values?readout=AC50&system=Alpha-2A adrenergic receptor (Homo sapiens)&item= CCCCCCOC(=O)CCC(=O)CN [HEXAMINOLEVULINATE]; also: assay procedure not described here
Result: > 30 µM

Request: GET /values?readout=AC50&system=Alpha-2A adrenergic receptor (Homo sapiens)&item= [H]/N=C(/N)N[C@H]1[C@H](O)[C@@H](O)[C@H](O[C@@H]2O[C@@H](C)[C@](O)(C=O)[C@H]2O[C@@H]2O[C@@H](CO)[C@H](O)[C@@H](O)[C@@H]2NC)[C@@H](N/C(N)=N\[H])[C@@H]1O [STREPTOMYCIN]; also: assay procedure not described here
Result: > 30 µM

###

molecular target: D(3) dopamine receptor (Homo sapiens); also: assay procedure not described here
Sequence (P35462 whole entry): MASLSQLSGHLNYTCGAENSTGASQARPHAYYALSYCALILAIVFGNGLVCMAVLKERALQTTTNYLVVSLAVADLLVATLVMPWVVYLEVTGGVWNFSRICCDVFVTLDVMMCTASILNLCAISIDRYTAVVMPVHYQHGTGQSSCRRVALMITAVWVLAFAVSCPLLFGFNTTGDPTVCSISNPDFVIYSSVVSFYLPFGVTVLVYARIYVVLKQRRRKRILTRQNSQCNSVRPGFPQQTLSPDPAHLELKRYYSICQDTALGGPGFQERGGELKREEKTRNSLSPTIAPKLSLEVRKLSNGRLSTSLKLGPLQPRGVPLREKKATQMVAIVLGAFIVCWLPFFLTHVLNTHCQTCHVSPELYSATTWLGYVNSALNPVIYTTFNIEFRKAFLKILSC
assayEndpoint: AC50

Cc1ccc([C@@H]2O[C@H](CO)[C@@H](O)[C@H](O)[C@H]2O)cc1Cc1ccc(-c2ccc(F)cc2)s1 [CANAGLIFLOZIN ANHYDROUS]
> 30 µM
CC(=O)Oc1ccccc1C(=O)Nc1ncc([N+](=O)[O-])s1 [NITAZOXANIDE]
> 30 µM
CC[C@H]1OC(=O)[C@H](C)[C@@H](O[C@H]2C[C@@](C)(OC)[C@@H](O)[C@H](C)O2)[C@H](C)[C@@H](O[C@@H]2O[C@H](C)C[C@H](N(C)C)[C@H]2O)[C@](C)(OC)C[C@@H](C)C(=O)[C@H](C)[C@@H](O)[C@]1(C)O
> 30 µM

Now consider the entry below.
Request: GET /values?readout=AC50&system=D(3) dopamine receptor (Homo sapiens)&item= CCCCCCCCCCCCCCCCCC(=O)NCCCC[C@H](NC(=O)CC[C@@H](NC(=O)[C@H](C)NC(=O)[C@@H](C)O[C@H]1[C@H](O)[C@@H](CO)OC(O)[C@@H]1NC(C)=O)C(N)=O)C(=O)O (some centres undefined) [ROMURTIDE]; also: assay procedure not described here
Result: > 30 µM
